Listed molecules paired with reported pIC50
System: B16F10
Assay: Growth inhibition test (MTT), cytotoxic action on tumour cell lines
Assay type: cell-based, mouse
Settings: B16F10; MTT after day 6; read-out: IC50 values of the cytotoxic action on tumour cell lines, B16F10
*1 amine or outer side, *2 acyl side, *3 side chain or, on linkers, in order; H or OH if unused. Where a SMILES comes first, the peptide text is derived from it. [ ]: non-standard residue; d: D form. The star is where a group is joined. X6 = O=C(O)CC(NS(=O)(=O)c1ccc(-c2cccc(NC(=O)Nc3nc4ccccc4[nH]3)c2)cc1)c1cccc(N*)c1; Camptothecin(20R,20-O) = CC[C@]1(O*)C(=O)OCc2c1cc1n(c2=O)Cc2cc3ccccc3nc2-1; X2 = CCCNC(=O)Nc1cccc(S(=O)(=O)Nc2cccc(C(CC(=O)O)NC(=O)Nc3ccc(N*)cc3)c2)c1; CO = O=C([*:1])[*:2]; GABA = NCCCC(=O)O
Bear in mind: pIC50 is minus log10 of a mol/L concentration; give just that figure.

Examples from the recorded data:
{"molecule": "CCCNC(=O)Nc1cccc(S(=O)(=O)Nc2cccc(C(CC(=O)O)NC(=O)Nc3ccc(NC(=O)NCCCC(=O)N4CCC[C@@H]4C(=O)N[C@@H](CC(C)C)C(=O)NCC(=O)N[C@H](CC(C)C)C(=O)N[C@H](Cc4c[nH]cn4)C(=O)N[C@@H](C(=O)O[C@@]4(CC)C(=O)OCc5c4cc4n(c5=O)Cc5cc6ccccc6nc5-4)C(C)C)cc3)c2)c1 (stereo partly drawn) [Example 17] ({X2-CO-GABA}-[dP]LG[dL][dH][dV]-{Camptothecin(20R,20-O)})", "measured target": "B16F10", "pIC50": 6.22}
{"molecule": "CCCNC(=O)Nc1cccc(S(=O)(=O)Nc2cccc(C(CC(=O)O)NC(=O)Nc3ccc(NC(=S)N4CCC[C@H]4C(=O)N[C@@H](CC(C)C)C(=O)NCC(=O)N[C@@H](CC(C)C)C(=O)N[C@@H](CO)C(=O)N[C@H](C(=O)O[C@]4(CC)C(=O)OCc5c4cc4n(c5=O)Cc5cc6ccccc6nc5-4)C(C)C)cc3)c2)c1 (stereo partly drawn)", "measured target": "B16F10", "pIC50": 6.10}

Lab note: next molecule to report on.
Give a short answer stating reported pIC50 for CC[C@]1(OC(=O)[C@H](NC(=O)[C@@H](Cc2c[nH]cn2)NC(=O)[C@@H](CC(C)C)NC(=O)CNC(=O)[C@H](CC(C)C)NC(=O)[C@H]2CCCN2C(=O)Nc2cccc(C(CC(=O)O)NS(=O)(=O)c3ccc(-c4cccc(NC(=O)Nc5nc6ccccc6[nH]5)c4)cc3)c2)C(C)C)C(=O)OCc2c1cc1n(c2=O)Cc2cc3ccccc3nc2-1 (stereo partly drawn) [Example 7] ({X6-CO}-[dP]LG[dL][dH][dV]-{Camptothecin(20R,20-O)}) . 6.22

---

Molecular target: αvβ3 receptor (Homo sapiens, UniProt P05106+P06756)
Construct: αvβ3 from human A375 cells was purified; endogenous in cells; host or cells: human A375 cells (receptor purified from the cells, analogous to Wong et al. 1996)
Sequence (P06756 31-889 limits assumed): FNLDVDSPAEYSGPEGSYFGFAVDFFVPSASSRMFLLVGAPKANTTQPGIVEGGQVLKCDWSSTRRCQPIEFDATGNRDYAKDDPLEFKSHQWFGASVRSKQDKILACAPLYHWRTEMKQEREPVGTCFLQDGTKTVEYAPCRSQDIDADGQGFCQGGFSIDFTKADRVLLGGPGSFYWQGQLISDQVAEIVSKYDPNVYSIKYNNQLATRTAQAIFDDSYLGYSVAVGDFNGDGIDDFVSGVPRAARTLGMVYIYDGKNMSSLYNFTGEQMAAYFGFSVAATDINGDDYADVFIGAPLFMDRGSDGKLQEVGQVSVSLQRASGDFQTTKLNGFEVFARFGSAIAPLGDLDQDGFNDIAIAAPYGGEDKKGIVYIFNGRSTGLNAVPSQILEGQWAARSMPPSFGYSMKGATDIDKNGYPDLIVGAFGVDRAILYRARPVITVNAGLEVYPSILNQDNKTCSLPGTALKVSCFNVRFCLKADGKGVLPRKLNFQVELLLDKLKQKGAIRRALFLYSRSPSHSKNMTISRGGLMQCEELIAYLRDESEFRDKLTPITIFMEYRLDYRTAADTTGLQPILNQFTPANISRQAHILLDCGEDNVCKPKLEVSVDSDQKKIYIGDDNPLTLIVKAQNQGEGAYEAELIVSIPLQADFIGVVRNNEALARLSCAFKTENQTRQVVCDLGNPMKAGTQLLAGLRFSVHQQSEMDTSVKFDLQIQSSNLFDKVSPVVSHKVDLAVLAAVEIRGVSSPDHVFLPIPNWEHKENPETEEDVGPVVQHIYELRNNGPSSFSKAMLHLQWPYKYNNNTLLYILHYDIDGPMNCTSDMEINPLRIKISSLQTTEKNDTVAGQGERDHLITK
Sequence (P06756 891-1048 partner limits assumed): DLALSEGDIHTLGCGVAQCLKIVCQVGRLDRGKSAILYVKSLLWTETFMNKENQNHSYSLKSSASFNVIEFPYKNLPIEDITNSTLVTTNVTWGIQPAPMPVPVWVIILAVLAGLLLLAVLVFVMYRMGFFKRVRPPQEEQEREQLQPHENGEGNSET
Sequence (P05106 27-788): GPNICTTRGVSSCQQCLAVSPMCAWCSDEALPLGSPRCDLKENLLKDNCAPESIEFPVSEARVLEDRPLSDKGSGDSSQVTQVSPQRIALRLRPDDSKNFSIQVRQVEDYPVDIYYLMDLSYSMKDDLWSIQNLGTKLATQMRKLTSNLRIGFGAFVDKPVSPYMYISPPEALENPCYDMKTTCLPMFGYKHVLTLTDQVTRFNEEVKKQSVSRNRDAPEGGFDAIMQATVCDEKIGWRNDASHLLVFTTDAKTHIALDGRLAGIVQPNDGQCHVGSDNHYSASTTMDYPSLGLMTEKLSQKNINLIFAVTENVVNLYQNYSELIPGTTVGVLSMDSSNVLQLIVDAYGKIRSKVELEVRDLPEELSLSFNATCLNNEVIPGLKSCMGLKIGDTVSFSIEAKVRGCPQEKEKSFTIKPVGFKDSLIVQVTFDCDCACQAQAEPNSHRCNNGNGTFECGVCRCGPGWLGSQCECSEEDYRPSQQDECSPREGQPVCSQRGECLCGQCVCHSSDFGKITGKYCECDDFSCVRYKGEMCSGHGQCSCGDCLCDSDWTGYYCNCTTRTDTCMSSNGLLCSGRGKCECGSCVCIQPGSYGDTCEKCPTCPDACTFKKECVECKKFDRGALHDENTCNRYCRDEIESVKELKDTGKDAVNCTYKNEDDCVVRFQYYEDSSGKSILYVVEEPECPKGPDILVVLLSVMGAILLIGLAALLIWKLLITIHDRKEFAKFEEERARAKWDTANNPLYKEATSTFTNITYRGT
Experiment: αvβ3 binding test (echistatin displacement, WGA SPA beads)
Conditions: αvβ3 from human A375 cells; read-out: IC50 values of the binding to the αvβ3 receptor
Procedure: αvβ3 from human A375 cells was purified analogously to a procedure which was described by Wong et al. (Molecular Pharmacology, 50, 529-537 (1996)). […] After 16 hours at room temperature, the samples were measured in a scintillation measuring apparatus (Wallac 1450).
recorded metric: pIC50
Worth noting: pIC50 values are minus log10 of concentrations stated in mol/L.

Worked cases, pIC50 given:
{"compound": "CCCNC(=O)Nc1cccc(S(=O)(=O)Nc2cccc(C(CC(=O)O)NC(=O)Nc3ccc(NC(=S)N4CCC[C@@H]4C(=O)N[C@@H](CC(C)C)C(=O)NCC(=O)N[C@H](CC(C)C)C(=O)N[C@H](Cc4c[nH]cn4)C(=O)N[C@@H](C(=O)O[C@@]4(CC)C(=O)OCc5c4cc4n(c5=O)Cc5cc6ccccc6nc5-4)C(C)C)cc3)c2)c1 (single isomer, unassigned) [Example 3]", "measured target": "αvβ3 receptor (Homo sapiens, UniProt P05106+P06756)", "pIC50": 7.35}
{"compound": "CCCNC(=O)Nc1cccc(S(=O)(=O)Nc2cccc(C(CC(=O)O)NC(=O)Nc3ccc(NC(=S)N4CCC[C@@H]4C(=O)N[C@@H](CC(C)C)C(=O)NCC(=O)N[C@H](CC(C)C)C(=O)N[C@H](Cc4c[nH]cn4)C(=O)N[C@@H](C(=O)O[C@@]4(CC)C(=O)OCc5c4cc4n(c5=O)Cc5cc6ccccc6nc5-4)C(C)C)cc3)c2)c1 (single isomer, unassigned) [Example 2]", "measured target": "αvβ3 receptor (Homo sapiens, UniProt P05106+P06756)", "pIC50": 7.60}
{"compound": "CCCNC(=O)Nc1cccc(S(=O)(=O)Nc2cccc(C(CC(=O)O)NC(=O)Nc3ccc(NC(=S)N4CCC[C@@H]4C(=O)N[C@@H](CC(C)C)C(=O)NCC(=O)N[C@H](CC(C)C)C(=O)N[C@H](CC(N)=O)C(=O)N[C@@H](C(=O)O[C@@]4(CC)C(=O)OCc5c4cc4n(c5=O)Cc5cc6ccccc6nc5-4)C(C)C)cc3)c2)c1 (single isomer, unassigned) [Example 10]", "measured target": "αvβ3 receptor (Homo sapiens, UniProt P05106+P06756)", "pIC50": 7.70}
{"compound": "CCCNC(=O)Nc1cccc(S(=O)(=O)Nc2cccc(C(CC(=O)O)NC(=O)Nc3ccc(NC(=S)N4CCC[C@@H]4C(=O)N[C@@H](CC(C)C)C(=O)NCC(=O)N[C@H](CC(C)C)C(=O)N[C@H](CC(N)=O)C(=O)N[C@@H](C(=O)O[C@@]4(CC)C(=O)OCc5c4cc4n(c5=O)Cc5cc6ccccc6nc5-4)C(C)C)cc3)c2)c1 (single isomer, unassigned) [Example 11]", "measured target": "αvβ3 receptor (Homo sapiens, UniProt P05106+P06756)", "pIC50": 6.52}
{"compound": "CCCNC(=O)Nc1cccc(S(=O)(=O)Nc2cccc(C(CC(=O)O)NC(=O)Nc3ccc(NC(=S)N4CCC[C@@H]4C(=O)N[C@@H](CC(C)C)C(=O)NCC(=O)N[C@H](CSC)C(=O)N[C@H](Cc4c[nH]cn4)C(=O)N[C@@H](C(=O)O[C@@]4(CC)C(=O)OCc5c4cc4n(c5=O)Cc5cc6ccccc6nc5-4)C(C)C)cc3)c2)c1 (stereo partly shown)", "measured target": "αvβ3 receptor (Homo sapiens, UniProt P05106+P06756)", "pIC50": 7.70}

Look up and report measured pIC50 for this entry: CCCNC(=O)Nc1cccc(S(=O)(=O)Nc2cccc(C(CC(=O)O)NC(=O)Nc3ccc(NC(=S)N4CCC[C@@H]4C(=O)N[C@@H](CC(C)C)C(=O)NCC(=O)N[C@H](CC(C)C)C(=O)N[C@H](CC(N)=O)C(=O)N[C@@H](C(=O)O[C@@]4(CC)C(=O)OCc5c4cc4n(c5=O)Cc5cc6ccccc6nc5-4)C(C)C)cc3)c2)c1 (stereo partly shown) [Example 9] 7.52

Please indicate pIC50 recorded for CCCNC(=O)Nc1cccc(S(=O)(=O)Nc2cccc(C(CC(=O)O)NC(=O)Nc3ccc(NC(=S)N4CCC[C@@H]4C(=O)N[C@@H](CC(C)C)C(=O)NCC(=O)N[C@H](CC(C)C)C(=O)N[C@H](Cc4c[nH]cn4)C(=O)N[C@@H](C(=O)O[C@@]4(CC)C(=O)OCc5c4cc4n(c5=O)Cc5cc6ccccc6nc5-4)C(C)C)cc3)c2)c1 (stereo partly shown) [Example 1] 7.40

---

Tested on: HT29
Test: Growth inhibition test (MTT), cytotoxic action on tumour cell lines
Assay type: cell-based, human
Details: HT29; MTT after day 6; read-out: IC50 values of the cytotoxic action on tumour cell lines, HT29
*1 amine or outer side, *2 acyl side, *3 side chain or, on linkers, in order; H or OH if unused. Where a SMILES comes first, the peptide text is derived from it. [ ]: non-standard residue; d: D form. The star is where a group is joined. Camptothecin(20R,20-O) = CC[C@]1(O*)C(=O)OCc2c1cc1n(c2=O)Cc2cc3ccccc3nc2-1; X2 = CCCNC(=O)Nc1cccc(S(=O)(=O)Nc2cccc(C(CC(=O)O)NC(=O)Nc3ccc(N*)cc3)c2)c1; CO = O=C([*:1])[*:2]; GABA = NCCCC(=O)O
recorded metric: pIC50
Remember the convention: pIC50 equals -log10 of concentration in molar.

{"compound": "CCCNC(=O)Nc1cccc(S(=O)(=O)Nc2cccc(C(CC(=O)O)NC(=O)Nc3ccc(NC(=O)NCCCC(=O)N4CCC[C@@H]4C(=O)N[C@@H](CC(C)C)C(=O)NCC(=O)N[C@H](CC(C)C)C(=O)N[C@H](CC(N)=O)C(=O)N[C@@H](C(=O)O[C@@]4(CC)C(=O)OCc5c4cc4n(c5=O)Cc5cc6ccccc6nc5-4)C(C)C)cc3)c2)c1 (stereo partly drawn) [Example 18] ({X2-CO-GABA}-[dP]LG[dL][dN][dV]-{Camptothecin(20R,20-O)})", "pIC50": 7.60}

Please look at the following compound next.
Answer with the recorded pIC50 for the compound listed here: CCCNC(=O)Nc1cccc(S(=O)(=O)Nc2cccc(C(CC(=O)O)NC(=O)Nc3ccc(NC(=S)N4CCC[C@@H]4C(=O)N[C@@H](CC(C)C)C(=O)NCC(=O)N[C@H](CC(C)C)C(=O)N[C@@H](C(=O)O[C@@]4(CC)C(=O)OCc5c4cc4n(c5=O)Cc5cc6ccccc6nc5-4)C(C)C)cc3)c2)c1 (single isomer, unassigned) 6.82
